Tested on: VDR:RXRa (NR concentration 270 nM, RXRa partner concentration 90 nM)
Assay: PBM binding z-score (relative to random genomic background probes); higher = stronger binding; sequences stand for … in GC…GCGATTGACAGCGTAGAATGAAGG
PBM binding z-score of 2 or higher: true. Under 2: false.

{"columns": ["sequence record", "measurement target", "answer label"],
 "data": [
  ["CAAACTTGGTCACCGGAAGGTCAAAGTCCGCATG", "VDR:RXRa (NR concentration 270 nM, RXRa partner concentration 90 nM)", "true"],
  ["CCTACTGGGACAAGGTCATTGATCAGTCAAAGCA", "VDR:RXRa (NR concentration 270 nM, RXRa partner concentration 90 nM)", "true"],
  ["GCAGACAGGTGAAACGCAAGTAACTCAGGGTGGC", "VDR:RXRa (NR concentration 270 nM, RXRa partner concentration 90 nM)", "false"],
  ["CAAACTAGGTCACAGGAAGGTCAAAGTCCGCATG", "VDR:RXRa (NR concentration 270 nM, RXRa partner concentration 90 nM)", "true"],
  ["TTACCAAGGTGAGCTGAGGTGGTTGATCCAACTC", "VDR:RXRa (NR concentration 270 nM, RXRa partner concentration 90 nM)", "false"],
  ["AATACAGGGTCATCGTCGGCCAGAGTACGCACAG", "VDR:RXRa (NR concentration 270 nM, RXRa partner concentration 90 nM)", "true"],
  ["GCTGCTAGGTCAACTGATGGTCAGCTGAAGCTCG", "VDR:RXRa (NR concentration 270 nM, RXRa partner concentration 90 nM)", "false"],
  ["CTCGAAAGGTCGTGCTCAGGTGAGTATTCCAAAC", "VDR:RXRa (NR concentration 270 nM, RXRa partner concentration 90 nM)", "true"]
]}

Q: Check this sequence for PBM binding z-score at or above 2: `TCATATAGGTAAATGTGAAAGTCGAACGATATGA`
Result: false

Q: Check this sequence for PBM binding z-score at or above 2: `TCATATAGGTAATAGAGGTGAAAGTCGGCATCTA`
Result: true

Q: Check this sequence for PBM binding z-score at or above 2: `ATATGTAGGTTGTCGGGTCATTCAGTTTGCGCAT`
Result: true

Q: Check this sequence for PBM binding z-score at or above 2: `TCATATAGGTAAACGGTGAAAGTCGGTGTGGTAA`
Result: false

Q: Check this sequence for PBM binding z-score at or above 2: `TCATATAGGTAAGTGCTAGGTGAAAGTCCGATCT`
Result: false

Q: Check this sequence for PBM binding z-score at or above 2: `ATCTCTAGGTAACAAGTTCAGTGATAGAGAGGAC`
Result: false

Q: Check this sequence for PBM binding z-score at or above 2: `CGAACTAGGTCATGGACAGGACAGTGAATAGTAA`
Result: true

###

Test system: RXRa homodimer (NR concentration 180 nM)
Test: PBM binding z-score (relative to random genomic background probes); higher = stronger binding; sequences stand for … in GC…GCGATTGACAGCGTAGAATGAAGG
endpoint name: PBM binding z-score
Please state the value as a number alone, without comment.

Past entries and their recorded results:
{"columns": ["sequence record", "PBM binding z-score"],
 "data": [
  ["ATCGAAGGGTCGACGAGGTGAGTATACACCGTTT", 2.33],
  ["CCTACTGGGCCAAAAAGGTCATTGAGGCCGATAA", 4.63],
  ["CGAACTAGGACATTGACAGGACAGTGAATAGTAA", -0.322],
  ["TCGCGTAGGTTAGGGGCATTCAGAATGGCGTCGA", 0.821],
  ["CAGACTAGGTCACAGAGGTCAAAGTCCGTGCGTA", 7.88]
]}

Now examine the next entry.
Q: Tell us which PBM binding z-score value is on record for `CCTACTGGGCAAAAGGTCATTGATTCCAATGCTC`
Result: 6.04
